System: PC12 cells
test_method_notes: Zinc-induced cell death of PC12 cells
Format: cell-based
test_settings: PC12 cells, same range of concentrations as zinc
endpoint: cell death (apoptosis or necrosis) by metal salts

* O=S(=O)([O-])[O-].[Cu+2] [CuSO4] | No cell death
* [Cl][Ni][Cl] [NiCl2] | No cell death
